Target: LARP1 LaM (UniProt Q6PKG0-3 323-410)
Experiment: ITC; 10 mM MES pH 6.3, 100 mM NaCl, 1 mM TCEP (HPLC and NMR buffer; ITC buffer not stated separately); ITC 293 K, NMR 25 C
Observed Property: binding result

AAAAAAAAAAA (ssRNA) [A11] | binds
AAAAAA (ssRNA) [A6] | binds
AACAAA (ssRNA) [A2CA3] | binds

These entries and their values trace back to paper PMC9458460.
